- Experimental system: VEGFR2 (Homo sapiens)
- Procedure text: VEGFR2 Kinase Assay (biochemical KDR kinase, poly-Glu-Tyr ELISA)
- Design: 200-300 ng purified cytoplasmic domain KDR protein; purchased BPS Bioscience
- Setup conditions: purified cytoplasmic domain KDR protein, 2.7 μM ATP
- Sequence (P35968 786-1356 limits assumed): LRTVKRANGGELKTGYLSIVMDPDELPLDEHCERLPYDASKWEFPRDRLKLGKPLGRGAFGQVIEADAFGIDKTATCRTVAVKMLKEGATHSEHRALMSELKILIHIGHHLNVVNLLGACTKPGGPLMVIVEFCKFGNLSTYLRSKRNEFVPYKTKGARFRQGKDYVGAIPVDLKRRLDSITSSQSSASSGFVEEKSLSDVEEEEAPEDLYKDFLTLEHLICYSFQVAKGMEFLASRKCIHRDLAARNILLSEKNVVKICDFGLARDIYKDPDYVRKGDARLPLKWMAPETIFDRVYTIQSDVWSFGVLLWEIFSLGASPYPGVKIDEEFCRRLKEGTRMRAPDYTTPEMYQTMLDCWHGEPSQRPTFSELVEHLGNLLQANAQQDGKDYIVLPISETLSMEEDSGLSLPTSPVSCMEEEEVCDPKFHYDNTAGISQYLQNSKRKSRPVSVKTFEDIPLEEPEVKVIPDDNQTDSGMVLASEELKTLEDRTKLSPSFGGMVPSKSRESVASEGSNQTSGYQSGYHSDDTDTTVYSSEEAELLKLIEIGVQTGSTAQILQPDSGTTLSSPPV
pIC50: −log10 of the molar value.
Measurement kind: pIC50

// below: answered molecules
{"Molecule": "COC(=O)CCCCS(=O)(CCCCC(=O)OC)=NC(=O)c1cnc(N)c(C#Cc2ccc(NC(=O)Nc3cc(C)ccc3F)cc2)c1 [Example 19]", "Measurement kind": "pIC50", "Observed measurement": 7.89}
{"Molecule": "COC(=O)CCCCS(=O)(CCCCC(=O)OC)=NC(=O)c1cnc(N)c(C#Cc2cccc(NC(=O)c3cccc(C(F)(F)F)c3)c2)c1 [Example 5]", "Measurement kind": "pIC50", "Observed measurement": 8.00}
{"Molecule": "COC(=O)CCCCS(=O)(CCCCC(=O)OC)=NC(=O)c1cnc(N)c(C#Cc2cccc(NC(=O)c3ccc(F)c(Cl)c3)c2)c1 [Example 4]", "Measurement kind": "pIC50", "Observed measurement": 8.10}
{"Molecule": "COC(=O)CCCCS(=O)(CCCCC(=O)OC)=NC(=O)c1cnc(N)c(C#Cc2cccc(C(=O)Nc3ccc(Cl)c(C(F)(F)F)c3)c2)c1 [Example 17]", "Measurement kind": "pIC50", "Observed measurement": 7.43}
{"Molecule": "COC(=O)CCCCS(=O)(CCCCC(=O)OC)=NC(=O)c1cnc(N)c(C#Cc2cccc(NC(=O)c3cccc(SC)c3)c2)c1 [Example 3]", "Measurement kind": "pIC50", "Observed measurement": 8.30}

P: COC(=O)CCCCS(=O)(CCCCC(=O)OC)=NC(=O)c1cnc(N)c(C#Cc2cccc(C(=O)Nc3cccc(C)c3)c2)c1 [Example 12]
Q: COC(=O)CCCCS(=O)(CCCCC(=O)OC)=NC(=O)c1cnc(N)c(C#Cc2cccc(C(=O)Nc3cccc(OC)c3)c2)c1 [Example 11]
Request: Field: lower recorded pIC50 (choose P or Q ) Indicate your choice by writing its label.
Response: P
(P: 8.10, Q: 8.40)

I: COC(=O)CCCCS(=O)(CCCCC(=O)OC)=NC(=O)c1cnc(N)c(C#Cc2cccc(C(=O)Nc3cc(C)ccc3F)c2)c1 [Example 14]
II: COC(=O)CCCCS(=O)(CCCCC(=O)OC)=NC(=O)c1cnc(N)c(C#Cc2cccc(NC(=O)c3occc3C)c2)c1 [Example 2]
Request: Field: entry with larger pIC50 (options I / II ). Output the label that corresponds to your choice.
Response: II
(II: 8.52, I: 7.96)

###

- Experimental system: VEGFR1 (Homo sapiens)
- Sequence (P17948 27-1338, species assumed): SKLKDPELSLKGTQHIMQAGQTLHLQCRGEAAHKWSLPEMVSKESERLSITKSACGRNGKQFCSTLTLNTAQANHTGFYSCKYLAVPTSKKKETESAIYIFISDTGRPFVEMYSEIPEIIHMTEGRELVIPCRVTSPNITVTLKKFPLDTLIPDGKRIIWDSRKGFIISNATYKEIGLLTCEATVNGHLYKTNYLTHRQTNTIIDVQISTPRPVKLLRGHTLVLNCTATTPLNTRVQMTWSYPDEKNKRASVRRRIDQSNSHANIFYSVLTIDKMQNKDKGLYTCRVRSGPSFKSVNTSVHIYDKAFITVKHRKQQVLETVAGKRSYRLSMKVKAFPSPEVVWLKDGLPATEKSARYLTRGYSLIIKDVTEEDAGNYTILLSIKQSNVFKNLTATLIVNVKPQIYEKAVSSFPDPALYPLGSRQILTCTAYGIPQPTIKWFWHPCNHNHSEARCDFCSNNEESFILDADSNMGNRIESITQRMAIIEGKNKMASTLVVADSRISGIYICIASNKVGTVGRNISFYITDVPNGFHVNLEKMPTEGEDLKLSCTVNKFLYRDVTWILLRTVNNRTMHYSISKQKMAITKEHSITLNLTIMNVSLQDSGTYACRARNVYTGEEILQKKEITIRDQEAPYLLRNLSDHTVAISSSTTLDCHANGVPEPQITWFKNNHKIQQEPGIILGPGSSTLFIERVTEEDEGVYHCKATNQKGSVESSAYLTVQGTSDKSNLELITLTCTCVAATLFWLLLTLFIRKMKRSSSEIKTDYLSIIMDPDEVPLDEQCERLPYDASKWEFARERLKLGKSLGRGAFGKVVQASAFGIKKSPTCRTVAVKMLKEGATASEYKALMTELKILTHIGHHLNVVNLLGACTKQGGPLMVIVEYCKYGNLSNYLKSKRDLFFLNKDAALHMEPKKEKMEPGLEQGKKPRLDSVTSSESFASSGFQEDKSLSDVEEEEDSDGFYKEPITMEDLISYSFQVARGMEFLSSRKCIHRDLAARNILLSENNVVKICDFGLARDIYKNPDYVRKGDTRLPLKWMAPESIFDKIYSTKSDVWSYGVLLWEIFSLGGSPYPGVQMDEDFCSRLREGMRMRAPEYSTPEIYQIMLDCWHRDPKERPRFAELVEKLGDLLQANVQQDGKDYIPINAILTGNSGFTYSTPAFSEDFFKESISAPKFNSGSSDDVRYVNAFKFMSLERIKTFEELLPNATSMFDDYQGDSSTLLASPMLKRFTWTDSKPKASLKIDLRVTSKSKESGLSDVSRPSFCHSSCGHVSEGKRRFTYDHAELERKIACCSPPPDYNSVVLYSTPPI
Measurement kind: pIC50
Just the number, please; pIC50 means minus log10 of the concentration in mol/L.

Request: Test system VEGFR1 (Homo sapiens); read-out pIC50; what value for COC(=O)CCCCS(=O)(CCCCC(=O)OC)=NC(=O)c1cnc(N)c(C#Cc2ccc(NC(=O)Nc3cc(C)ccc3F)cc2)c1 ?
Response: 7.64

###

- Experimental system: PDGFRβ (Homo sapiens)
- Sequence (P09619 554-1106 limits assumed): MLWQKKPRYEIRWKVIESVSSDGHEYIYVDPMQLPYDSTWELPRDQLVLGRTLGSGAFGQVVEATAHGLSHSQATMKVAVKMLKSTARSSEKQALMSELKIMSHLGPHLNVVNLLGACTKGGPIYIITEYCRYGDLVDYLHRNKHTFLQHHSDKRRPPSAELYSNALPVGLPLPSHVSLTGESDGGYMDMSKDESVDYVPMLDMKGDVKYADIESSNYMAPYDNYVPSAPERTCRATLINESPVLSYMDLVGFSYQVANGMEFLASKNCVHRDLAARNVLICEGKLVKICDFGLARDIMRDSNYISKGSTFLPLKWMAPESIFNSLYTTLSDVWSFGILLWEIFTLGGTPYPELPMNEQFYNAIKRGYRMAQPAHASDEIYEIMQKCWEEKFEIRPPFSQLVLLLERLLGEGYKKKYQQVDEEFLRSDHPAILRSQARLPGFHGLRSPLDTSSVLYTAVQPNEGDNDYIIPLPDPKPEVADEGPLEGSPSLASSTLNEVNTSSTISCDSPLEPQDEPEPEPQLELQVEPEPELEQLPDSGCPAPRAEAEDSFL
pIC50: −log10 of the molar value.
Measurement kind: pIC50

Look over these answered cases.
{"Smiles text": "COC(=O)CCCCS(=O)(CCCCC(=O)OC)=NC(=O)c1cnc(N)c(C#Cc2cccc(C(=O)Nc3cc(C)ccc3F)c2)c1", "Observed measurement": 7.30}
{"Smiles text": "COC(=O)CCCCS(=O)(CCCCC(=O)OC)=NC(=O)c1cnc(N)c(C#Cc2cccc(C(=O)Nc3cccc(C)c3)c2)c1", "Observed measurement": 7.24}

I: COC(=O)CCCCS(=O)(CCCCC(=O)OC)=NC(=O)c1cnc(N)c(C#Cc2cccc(C(=O)Nc3cc(C(C)(C)C)on3)c2)c1
II: COC(=O)CCCCS(=O)(CCCCC(=O)OC)=NC(=O)c1cnc(N)c(C#Cc2cccc(NC(=O)c3cccc(C(F)(F)F)c3)c2)c1
Request: Of I and II , which one carries the higher reported pIC50? Please respond with the label that marks your chosen entry.
Response: II
(II: 8.00, I: 7.70)

###

- Experimental system: VEGFR2 (Homo sapiens, UniProt P35968)
- Procedure text: VEGFR2 Cellular Assay (FLIPR, VEGF induced increases in intracellular calcium in HUVEC)
- Type: cell-based
- Design: host or cells: HUVEC
- Setup conditions: VEGF165 stimulation (10 ng/mL), Fluo-4
- Sequence (P35968 20-1356): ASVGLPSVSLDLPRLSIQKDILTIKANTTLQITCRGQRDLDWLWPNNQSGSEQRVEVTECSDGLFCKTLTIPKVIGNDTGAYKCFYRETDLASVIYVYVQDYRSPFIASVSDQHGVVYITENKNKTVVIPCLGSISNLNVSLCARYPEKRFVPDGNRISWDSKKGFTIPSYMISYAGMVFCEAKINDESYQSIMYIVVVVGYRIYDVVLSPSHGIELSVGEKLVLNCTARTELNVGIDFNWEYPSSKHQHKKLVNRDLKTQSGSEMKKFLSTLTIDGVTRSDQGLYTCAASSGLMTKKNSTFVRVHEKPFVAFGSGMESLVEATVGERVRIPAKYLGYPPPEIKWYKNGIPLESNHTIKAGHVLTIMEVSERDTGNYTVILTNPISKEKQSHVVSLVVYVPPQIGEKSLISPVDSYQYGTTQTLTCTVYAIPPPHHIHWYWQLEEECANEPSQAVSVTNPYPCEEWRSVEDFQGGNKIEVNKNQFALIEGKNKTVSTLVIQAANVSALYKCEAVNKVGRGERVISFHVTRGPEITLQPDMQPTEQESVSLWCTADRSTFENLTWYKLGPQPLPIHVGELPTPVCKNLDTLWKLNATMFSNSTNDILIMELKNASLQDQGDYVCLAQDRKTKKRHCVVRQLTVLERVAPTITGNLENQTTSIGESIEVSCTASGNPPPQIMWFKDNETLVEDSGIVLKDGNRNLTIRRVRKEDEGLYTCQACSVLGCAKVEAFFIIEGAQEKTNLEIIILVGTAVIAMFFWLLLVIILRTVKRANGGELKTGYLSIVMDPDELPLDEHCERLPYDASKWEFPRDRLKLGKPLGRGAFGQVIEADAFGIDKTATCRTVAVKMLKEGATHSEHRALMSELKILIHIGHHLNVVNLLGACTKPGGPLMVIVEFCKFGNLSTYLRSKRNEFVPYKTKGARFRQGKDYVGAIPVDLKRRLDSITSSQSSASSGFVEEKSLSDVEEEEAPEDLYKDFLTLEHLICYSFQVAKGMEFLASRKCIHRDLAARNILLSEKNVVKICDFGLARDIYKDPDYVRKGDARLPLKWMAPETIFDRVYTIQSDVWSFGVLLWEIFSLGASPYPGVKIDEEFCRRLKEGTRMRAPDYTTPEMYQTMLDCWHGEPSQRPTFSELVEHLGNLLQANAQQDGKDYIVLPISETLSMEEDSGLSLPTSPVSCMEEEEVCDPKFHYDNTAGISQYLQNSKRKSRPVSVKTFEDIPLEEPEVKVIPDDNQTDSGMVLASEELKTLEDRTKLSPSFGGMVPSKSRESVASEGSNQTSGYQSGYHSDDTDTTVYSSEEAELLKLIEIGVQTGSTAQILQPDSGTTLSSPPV
pIC50: −log10 of the molar value.
Measurement kind: pIC50

Known results for compounds:
{"Compound": "COC(=O)CCCCS(=O)(CCCCC(=O)OC)=NC(=O)c1cnc(N)c(C#Cc2cccc(C(=O)Nc3ccc(F)c(Cl)c3)c2)c1 [Example 15]", "Observed measurement": 7.96}
{"Compound": "COC(=O)CCCCS(=O)(CCCCC(=O)OC)=NC(=O)c1cnc(N)c(C#Cc2cccc(NC(=O)c3cccc(Cl)c3)c2)c1 [Example 6]", "Observed measurement": 9.00}
{"Compound": "COC(=O)CCCCS(=O)(CCCCC(=O)OC)=NC(=O)c1cnc(N)c(C#Cc2cccc(NC(=O)c3cccc([S+](C)[O-])c3)c2)c1 (stereo not drawn) [Example 8]", "Observed measurement": 8.22}
{"Compound": "COC(=O)CCCCS(=O)(CCCCC(=O)OC)=NC(=O)c1cnc(N)c(C#Cc2ccc(NC(=O)Nc3cc(C)ccc3F)cc2)c1 [Example 19]", "Observed measurement": 8.30}

A: COC(=O)CCCCS(=O)(CCCCC(=O)OC)=NC(=O)c1cnc(N)c(C#Cc2cccc(C(=O)Nc3ccc(OC)c(Cl)c3)c2)c1 [Example 13]
B: COC(=O)CCCCS(=O)(CCCCC(=O)OC)=NC(=O)c1cnc(N)c(C#Cc2cccc(NC(=O)c3cccc(C(F)(F)F)c3)c2)c1 [Example 5]
Request: Hi, I'm comparing A with B and wondering which one has the bigger number for pIC50. Any idea? Your choice should be expressed through its label.
Response: B

###

- Experimental system: VEGFR2 (Homo sapiens)
- Procedure text: VEGFR2 Cellular Assay (FLIPR, VEGF induced increases in intracellular calcium in HUVEC)
- Type: cell-based
- Set-up: host or cells: HUVEC
- Setup conditions: VEGF165 stimulation (10 ng/mL), Fluo-4
Measurement kind: IC50 (nM)

{"Smiles text": "COC(=O)CCCCS(=O)(CCCCC(=O)OC)=NC(=O)c1cnc(N)c(C#Cc2cccc(NC(=O)c3ccc(F)c(Cl)c3)c2)c1", "Measure unit": "nM", "IC50": 2}

I: COC(=O)CCCCS(=O)(CCCCC(=O)OC)=NC(=O)c1cnc(N)c(C#Cc2cccc(C(=O)Nc3cccc(C)c3)c2)c1
II: COC(=O)CCCCS(=O)(CCCCC(=O)OC)=NC(=O)c1cnc(N)c(C#Cc2cccc(NC(=O)c3occc3C)c2)c1
Request: Please indicate which has the smaller reported IC50: I , or II . The response must carry the label of the picked entry.
Response: I
(I: 1 nM, II: 3 nM)

###

- Experimental system: VEGFR2 (Homo sapiens, UniProt P35968)
- Procedure text: VEGFR2 Kinase Assay (biochemical KDR kinase, poly-Glu-Tyr ELISA)
- Design: 200-300 ng purified cytoplasmic domain KDR protein; purchased BPS Bioscience
- Setup conditions: purified cytoplasmic domain KDR protein, 2.7 μM ATP
Measurement kind: IC50 (nM)

{"Smiles text": "COC(=O)CCCCS(=O)(CCCCC(=O)OC)=NC(=O)c1cnc(N)c(C#Cc2cccc(NC(=O)c3cccc(Cl)c3)c2)c1", "Measurement kind": "IC50", "Measure unit": "nM", "Observed measurement": 11}

1: COC(=O)CCCCS(=O)(CCCCC(=O)OC)=NC(=O)c1cnc(N)c(C#Cc2cccc(NC(=O)Nc3cc(C)ccc3F)c2)c1
2: COC(=O)CCCCS(=O)(CCCCC(=O)OC)=NC(=O)c1cnc(N)c(C#Cc2cccc(C(=O)Nc3ccc(F)c(Cl)c3)c2)c1
Request: Hi, I'm comparing two records. Which one has the lower IC50, 1 or 2 ? Lab log: write the label of the selected item as the result.
Response: 1
(1: 10 nM, 2: 15 nM)

Data origin: patent US8558002B2
